- Test system: L1210 leukemia ip in BDF1 mice, survival T/C
- test: NCI In Vivo Anticancer Drug Screen. Data for tumor model L1210 Leukemia (intraperitoneal) in B6D2F1 (BDF1) mice
- measurement_conditions: endpoint: mean survival time; dose: 400.0 mg/kg/injection; schedule: Q04DX003 (ip); vehicle: Klucel (hydroxypropylcellulose) (HPC)
Inconclusive results and toxic doses are left out. Rule as the data show it: active = T/C of 150% or more; inactive = T/C below 125%.
Field 'call' accepts active, inactive

Some solved entries appear below for comparison.
compound=O=C(CCBr)NCNC(=O)CCBr answer_label=active
compound=O=[N+]([O-])/C=C/c1c(Cl)cccc1Cl answer_label=inactive
compound=COC(OC)c1cc(=O)[nH]c(=S)n1Cl answer_label=inactive
compound="O=C1CC(C(c2ccccc2)c2ccccc2)CO1 (configuration not stated)" answer_label=inactive
compound=Nc1nc(N)c2cc(S(=O)(=O)c3ccc4ccccc4c3)ccc2n1 answer_label=inactive

Ask | # fetch the recorded call for c1ccc2oc(CCCCc3nc4ccccc4o3)nc2c1 here
Reply | inactive

Ask | # fetch the recorded call for O=C(OC1CC2CC1C1CSCC21)c1ccc([N+](=O)[O-])cc1 (configuration not stated) here
Reply | inactive

Where do the numbers come from? From PubChem BioAssay AID248.
